Each entry below lists one item and its recorded fold induction at 5 µM value.
Tested on: HMOX1
Experiment: HMOX1 Protein Assay (immunostaining of HO-1 in NHLF cells, GE InCell 1000)
Assay type: cell-based
Settings: Homo sapiens, fold change above DMSO treated cells, 5 μM compound, 16 h
Counter-ions that a name gives are not always drawn.
Note: the reply should be a number with no unit written.

Some entries whose results are on file:
{"molecule": "CCOC(=O)c1cnc2c(c1)nc(Nc1nc3ccc(OC(F)(F)F)cc3s1)n2C [Example 71]", "fold induction at 5 µM": 4.2}
{"molecule": "Cn1c(Nc2nc3ccc(OC(F)(F)F)cc3s2)nc2cc(C(=O)NCC(=O)N3CCC(C(N)=O)CC3)ccc21 [Example 451]", "fold induction at 5 µM": 51.3}
{"molecule": "CNC(=O)c1ccc2c(c1)nc(Nc1nc3ccc(OC(F)(F)F)cc3s1)n2CCN [Example 173, hydrochloride]", "fold induction at 5 µM": 21.4}
{"molecule": "COCCNC(=O)c1cnc2c(c1)nc(Nc1nc3ccc(OC(F)(F)F)cc3s1)n2C [Example 73]", "fold induction at 5 µM": 20.6}
{"molecule": "Cn1c(Nc2nc3ccc(OC(F)(F)F)cc3s2)nc2ccc(C#N)cc21 [Example 195]", "fold induction at 5 µM": 4.4}

Query string: Kindly state the measured fold induction at 5 µM obtained for CN(C)C1CCN(C(=O)CNC(=O)c2ccc3c(c2)nc(Nc2nc4ccc(OC(F)(F)F)cc4s2)n3C)CC1 [Example 455] with HMOX1.
Result string: 80.4

Query string: Kindly state the measured fold induction at 5 µM obtained for C[C@H](NC(=O)c1ccc2c(c1)nc(Nc1nc3ccc(OC(F)(F)F)cc3s1)n2C)C(=O)O [Example 146] with HMOX1.
Result string: 3.7

Query string: Kindly state the measured fold induction at 5 µM obtained for Cn1c(Nc2nc3ccc(OC(F)(F)F)cc3s2)nc2cc(C(=O)NCCNS(C)(=O)=O)ccc21 [Example 322] with HMOX1.
Result string: 36

Query string: Kindly state the measured fold induction at 5 µM obtained for Cn1c(Nc2nc3ccc(OC(F)(F)F)cc3s2)nc2cc(C(=O)NCCN3CCOCC3)cnc21 [Example 77] with HMOX1.
Result string: 31.4

Query string: Kindly state the measured fold induction at 5 µM obtained for CCN(CC)C(=O)CNC(=O)c1ccc2c(c1)nc(Nc1nc3ccc(OC(F)(F)F)cc3s1)n2C [Example 140] with HMOX1.
Result string: 19.3

Query string: Kindly state the measured fold induction at 5 µM obtained for CNC(=O)c1ccc2c(c1)nc(Nc1nc3cc(F)ccc3s1)n2C [Example 122] with HMOX1.
Result string: 26.1

Query string: Kindly state the measured fold induction at 5 µM obtained for CCNC(=O)c1cnc2c(c1)nc(Nc1nc3ccc(OC(F)(F)F)cc3s1)n2C [Example 76] with HMOX1.
Result string: 22.5

Query string: Kindly state the measured fold induction at 5 µM obtained for CCOCCNC(=O)c1cc2nc(Nc3nc4ccc(OC(F)(F)F)cc4s3)n(C)c2cc1OC [Example 65] with HMOX1.
Result string: 10.2

Query string: Kindly state the measured fold induction at 5 µM obtained for Cn1c(Nc2nc3ccc(OC(F)(F)F)cc3s2)nc2cc(C(=O)NCCNC(=O)CO)ccc21 [Example 325] with HMOX1.
Result string: 32.4

Query string: Kindly state the measured fold induction at 5 µM obtained for COc1cc2c(cc1C(=O)NCC(=O)N(C)C)nc(Nc1nc3ccc(OC(F)(F)F)cc3s1)n2C [Example 63] with HMOX1.
Result string: 9.8

Query string: Kindly state the measured fold induction at 5 µM obtained for Cn1c(Nc2nc3ccc(Cl)cc3s2)nc2cc(C(=O)NCCN3CCNC(=O)C3)ccc21 [Example 331] with HMOX1.
Result string: 70.1

Query string: Kindly state the measured fold induction at 5 µM obtained for CNC(=O)c1ccc2nc(Nc3nc4ccc(OC(F)(F)F)cc4s3)n(C)c2c1 [Example 38] with HMOX1.
Result string: 18

Query string: Kindly state the measured fold induction at 5 µM obtained for CCOCCNC(=O)c1ccc2c(c1)nc(Nc1nc3ccc(OC(F)(F)F)cc3s1)n2CCF [Example 172] with HMOX1.
Result string: 21.4

Query string: Kindly state the measured fold induction at 5 µM obtained for COCCn1c(Nc2nc3ccc(Cl)cc3s2)nc2cc(C(=O)NCC3CCN(C(=O)CN(C)C)CC3)ccc21 [Example 315] with HMOX1.
Result string: 75.7
